These measurements were taken from ChEMBL document CHEMBL3124816.

Catalogue of molecules with associated Papp
measurementProtocol: Apparent permeability of the compound in human Caco2 cells
Type: ADME, cell-based
conditionDetails: Caco-2
The reply should consist of the numeric value with the unit placed after it.

Below, each entry is followed by its recorded Papp result.
| molecule | valueMeasured |
| --- | --- |
| NC(=O)c1sc(N2CCOCC2)nc1CC(=O)N1CCc2c(Br)cccc21 | 247 nm/s |
| CC1Cc2cc(F)ccc2N1C(=O)Cc1nc(N2CCOCC2)sc1C(=O)O (stereo not drawn) | 9 nm/s |

**Q:** For the molecule NC(=O)c1sc(N2CCOCC2)nc1CC(=O)N1CCc2cc(F)ccc21 , what Papp is on record?
**A:** 222 nm/s

###

measurementProtocol: Plasma concentration in SCID mouse harboring human PTEN-deficient PC3 cells at 100 mg/kg, po after 1 hr
Assay type: ADME, organism-based, PC-3
Design: dose 100 mg/kg, route oral
parameterMeasured: concentration at 1 h (nM)
Answer in nM, number only, no unit symbol.

**Q:** For the compound NC(=O)c1sc(N2CCOCC2)nc1CC(=O)N1CCc2cc(F)ccc21 , what concentration at 1 h is on record?
**A:** 310

###

measurementProtocol: Plasma concentration in SCID mouse harboring human PTEN-deficient PC3 cells at 150 mg/kg, po after 16 hrs
Assay type: ADME, organism-based, PC-3
Design: dose 150 mg/kg, route oral
parameterMeasured: concentration at 16 h (nM)
Answer in nM, number only, no unit symbol.

**Q:** For the compound CC1Cc2c(Br)cccc2N1C(=O)Cc1nc(N2CCOCC2)sc1C(=O)O (single isomer, unassigned; enantiomer 1) , what concentration at 16 h is on record?
**A:** 3000

###

measurementProtocol: Efflux ratio of permeability from basolateral to apical side over apical to basolateral side in human Caco2 cells
Type: ADME, cell-based
conditionDetails: Caco-2
parameterMeasured: efflux ratio
Output spec: single numeric token, no unit.

**Q:** For the compound O=C(O)c1sc(N2CCOCC2)nc1CC(=O)N1CCc2cc(F)ccc21 , what efflux ratio is on record?
**A:** 13

###

measurementProtocol: Drug metabolism in human liver microsomes assessed as compound lability
Format: ADME
conditionDetails: liver microsomes, read-out: Drug metabolism
// NO strictly below 40% in metabolised; YES otherwise

These solved cases illustrate the format of a correct answer.
| compound | className |
| --- | --- |
| CC1Cc2cc(F)ccc2N1C(=O)Cc1nc(N2CCOCC2)sc1C(=O)O (stereo not drawn) | NO |
| CC1Cc2c(Br)cccc2N1C(=O)Cc1nc(N2CCOCC2)sc1C(N)=O (single isomer, unassigned; (-)) | YES |
| O=C(O)c1sc(N2CCOCC2)nc1CC(=O)N1CCc2c(Cl)cccc21 | NO |
| NC(=O)c1sc(N2CCOCC2)nc1CC(=O)N1CCc2cc(F)ccc21 | NO |
| NC(=O)c1sc(N2CCOCC2)nc1CC(=O)N1CCc2c(Br)cccc21 | YES |

**Q:** Please check the record CC1Cc2c(Cl)cccc2N1C(=O)Cc1nc(N2CCOCC2)sc1C(=O)O (stereo not drawn) and state if its metabolised is at or above 40%.
**A:** NO

**Q:** Another compound to look at: CC1Cc2c(Br)cccc2N1C(=O)Cc1nc(N2CCOCC2)sc1C(=O)O (single isomer, unassigned; enantiomer 2)
**A:** NO

**Q:** Another compound to look at: CC1Cc2cc(F)ccc2N1C(=O)Cc1nc(N2CCOCC2)sc1C(N)=O (stereo not drawn)
**A:** YES

**Q:** Another compound to look at: O=C(O)c1sc(N2CCOCC2)nc1CC(=O)N1CCc2c(Br)cccc21
**A:** NO

**Q:** Another compound to look at: CC1Cc2c(Cl)cccc2N1C(=O)Cc1nc(N2CCOCC2)sc1C(N)=O (stereo not drawn)
**A:** YES

**Q:** Another compound to look at: O=C(O)c1sc(N2CCOCC2)nc1CC(=O)N1CCc2cc(F)ccc21
**A:** NO

**Q:** Another compound to look at: NC(=O)c1sc(N2CCOCC2)nc1CC(=O)N1CCc2ccccc21
**A:** NO

###

measurementProtocol: Clearance in Sprague-Dawley rat at 3 mg/kg, iv
Format: ADME, organism-based
Parameters: dose 3 mg/kg, route intravenous
conditionDetails: in vivo
parameterMeasured: clearance (mL/min/kg)
Answer in mL/min/kg, number only, no unit symbol.

**Q:** For the compound CC1Cc2c(Br)cccc2N1C(=O)Cc1nc(N2CCOCC2)sc1C(=O)O (single isomer, unassigned; enantiomer 1) , what clearance is on record?
**A:** 4.17

###

measurementProtocol: Apparent permeability of the compound in human Caco2 cells
Assay type: ADME, cell-based
conditionDetails: Caco-2
// classify(record): look up Papp in ranges low-valued (below 5 nm/s), mid-valued (5 nm/s to below 200 nm/s), high-valued (200 nm/s or more)

| compound | className |
| --- | --- |
| O=C(O)c1sc(N2CCOCC2)nc1CC(=O)N1CCc2c(Br)cccc21 | low-valued |
| CC1Cc2cc(F)ccc2N1C(=O)Cc1nc(N2CCOCC2)sc1C(N)=O (centres undefined) | mid-valued |
| CC1Cc2c(Br)cccc2N1C(=O)Cc1nc(N2CCOCC2)sc1C(N)=O (single isomer, unassigned; (-)) | high-valued |

**Q:** Tag the class for CC1Cc2c(Cl)cccc2N1C(=O)Cc1nc(N2CCOCC2)sc1C(=O)O (centres undefined)
**A:** mid-valued

**Q:** Another compound to look at: O=C(O)c1sc(N2CCOCC2)nc1CC(=O)N1CCc2cc(F)ccc21
**A:** low-valued

**Q:** Another compound to look at: O=C(O)c1sc(N2CCOCC2)nc1CC(=O)N1CCc2c(Cl)cccc21
**A:** mid-valued

**Q:** Another compound to look at: NC(=O)c1sc(N2CCOCC2)nc1CC(=O)N1CCc2ccccc21
**A:** mid-valued

**Q:** Another compound to look at: CC1Cc2c(Cl)cccc2N1C(=O)Cc1nc(N2CCOCC2)sc1C(N)=O (centres undefined)
**A:** high-valued

###

measurementProtocol: AUC in Sprague-Dawley rat at 10 mg/kg, po
Format: ADME, organism-based
Design: dose 10 mg/kg, route oral
conditionDetails: plasma
parameterMeasured: AUC (ng·h/mL)
Answer in ng·h/mL, number only, no unit symbol.

**Q:** For the compound CC1Cc2c(Br)cccc2N1C(=O)Cc1nc(N2CCOCC2)sc1C(=O)O (single isomer, unassigned; enantiomer 1) , what AUC is on record?
**A:** 41000

###

testSystem: Phosphatidylinositol 4,5-bisphosphate 3-kinase catalytic subunit delta isoform (Homo sapiens, UniProt O00329)
Sequence (O00329 whole entry, canonical isoform): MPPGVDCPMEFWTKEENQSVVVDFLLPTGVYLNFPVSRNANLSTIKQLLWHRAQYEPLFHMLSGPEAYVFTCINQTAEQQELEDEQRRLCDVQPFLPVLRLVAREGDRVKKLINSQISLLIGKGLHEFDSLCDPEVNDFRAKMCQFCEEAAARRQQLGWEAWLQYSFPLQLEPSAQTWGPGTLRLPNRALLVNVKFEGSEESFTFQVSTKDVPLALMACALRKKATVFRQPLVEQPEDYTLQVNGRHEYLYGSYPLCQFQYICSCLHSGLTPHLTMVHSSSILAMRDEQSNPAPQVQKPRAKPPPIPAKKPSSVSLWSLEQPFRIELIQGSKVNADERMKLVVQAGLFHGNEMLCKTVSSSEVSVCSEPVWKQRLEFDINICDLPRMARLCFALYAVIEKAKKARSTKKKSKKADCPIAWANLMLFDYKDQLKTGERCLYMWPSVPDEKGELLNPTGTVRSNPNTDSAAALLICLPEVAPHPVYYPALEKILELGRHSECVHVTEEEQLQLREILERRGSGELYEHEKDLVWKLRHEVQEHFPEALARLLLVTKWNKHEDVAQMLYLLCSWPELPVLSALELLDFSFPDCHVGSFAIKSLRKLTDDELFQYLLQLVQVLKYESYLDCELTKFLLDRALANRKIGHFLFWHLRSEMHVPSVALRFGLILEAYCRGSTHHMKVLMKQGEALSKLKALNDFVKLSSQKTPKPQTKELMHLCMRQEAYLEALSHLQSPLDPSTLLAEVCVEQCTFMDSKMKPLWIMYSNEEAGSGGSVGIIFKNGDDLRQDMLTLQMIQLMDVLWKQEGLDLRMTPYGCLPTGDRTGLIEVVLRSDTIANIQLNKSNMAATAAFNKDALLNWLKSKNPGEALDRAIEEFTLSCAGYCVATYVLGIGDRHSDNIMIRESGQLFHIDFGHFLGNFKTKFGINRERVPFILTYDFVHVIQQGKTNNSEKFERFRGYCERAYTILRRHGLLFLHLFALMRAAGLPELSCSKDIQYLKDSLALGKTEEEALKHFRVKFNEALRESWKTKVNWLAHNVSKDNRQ
measurementProtocol: Inhibition of human PI3Kdelta after 15 mins
Criterion: IC50 strictly less than 300 nM. Met: label 1. Not met: label 0.

| molecule | className |
| --- | --- |
| O=C(O)c1sc(N2CCOCC2)nc1CC(=O)N1CCc2ccccc21 | label 0 |
| NC(=O)c1sc(N2CCOCC2)nc1CC(=O)N1CCc2c(Cl)cccc21 | label 1 |
| CC1Cc2ccccc2N1C(=O)Cc1nc(N2CCOCC2)sc1C(=O)O (racemic) | label 0 |

**Q:** Please indicate whether the reported IC50 of CC1Cc2c(Br)cccc2N1C(=O)Cc1nc(N2CCOCC2)sc1C(N)=O (single isomer, unassigned; (-)) is strictly below 300 nM.
**A:** label 1

**Q:** Another molecule to look at: CC1Cc2c(Cl)cccc2N1C(=O)Cc1nc(N2CCOCC2)sc1C(=O)O (stereo not given)
**A:** label 1

###

Catalogue of compounds with associated IC50
testSystem: Phosphatidylinositol 4,5-bisphosphate 3-kinase catalytic subunit gamma isoform (Homo sapiens)
Sequence (P48736 whole entry, canonical isoform): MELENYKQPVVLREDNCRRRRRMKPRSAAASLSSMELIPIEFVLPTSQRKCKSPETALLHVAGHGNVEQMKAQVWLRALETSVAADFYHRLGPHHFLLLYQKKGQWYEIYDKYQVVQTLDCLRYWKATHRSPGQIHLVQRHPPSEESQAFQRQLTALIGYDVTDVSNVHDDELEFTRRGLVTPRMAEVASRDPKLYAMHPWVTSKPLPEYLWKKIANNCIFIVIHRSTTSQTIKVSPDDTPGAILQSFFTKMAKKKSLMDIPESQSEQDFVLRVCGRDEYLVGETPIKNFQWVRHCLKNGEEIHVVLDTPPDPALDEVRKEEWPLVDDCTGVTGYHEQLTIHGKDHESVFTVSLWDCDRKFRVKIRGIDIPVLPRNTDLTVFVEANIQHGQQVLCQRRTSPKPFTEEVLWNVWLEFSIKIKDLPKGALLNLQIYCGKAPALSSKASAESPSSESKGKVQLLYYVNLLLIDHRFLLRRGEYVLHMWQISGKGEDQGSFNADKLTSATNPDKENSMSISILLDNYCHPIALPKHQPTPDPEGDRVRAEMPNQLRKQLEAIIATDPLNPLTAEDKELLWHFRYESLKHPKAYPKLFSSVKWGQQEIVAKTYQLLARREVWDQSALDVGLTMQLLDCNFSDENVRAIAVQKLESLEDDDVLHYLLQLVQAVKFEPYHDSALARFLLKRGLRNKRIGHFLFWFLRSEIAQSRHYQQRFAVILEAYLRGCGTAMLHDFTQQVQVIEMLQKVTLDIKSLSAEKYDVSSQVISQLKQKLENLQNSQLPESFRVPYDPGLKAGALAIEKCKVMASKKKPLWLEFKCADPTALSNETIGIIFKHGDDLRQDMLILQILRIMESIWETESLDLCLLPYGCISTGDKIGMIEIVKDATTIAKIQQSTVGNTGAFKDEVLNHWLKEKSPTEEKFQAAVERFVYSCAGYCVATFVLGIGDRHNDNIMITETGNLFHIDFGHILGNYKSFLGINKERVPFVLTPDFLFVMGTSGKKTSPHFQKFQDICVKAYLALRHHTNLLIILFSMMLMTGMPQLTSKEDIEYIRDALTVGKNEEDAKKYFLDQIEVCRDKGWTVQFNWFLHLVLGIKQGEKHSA
measurementProtocol: Inhibition of human PI3Kgamma after 15 mins

Below, each entry is followed by its recorded IC50 result.
| compound | IC50 |
| --- | --- |
| CC1Cc2cc(F)ccc2N1C(=O)Cc1nc(N2CCOCC2)sc1C(=O)O (stereo not drawn) | > 10 µM |
| NC(=O)c1sc(N2CCOCC2)nc1CC(=O)N1CCc2cc(F)ccc21 | > 10 µM |

Consider the additional compound presented here.
**Q:** For the compound NC(=O)c1sc(N2CCOCC2)nc1CC(=O)N1CCc2ccccc21 , what IC50 is on record?
**A:** > 10 µM

###

measurementProtocol: Thermodynamic solubility of the compound in 50 mM Phosphate buffer at pH 7.4 after 16 hrs by HPLC analysis
Format: physicochemical
conditionDetails: phosphate buffer, pH 7.4; read-out: Therm_solubility
Catalogue of compounds with associated solubility thermodynamic at 16 h
Answer in µM, number only, no unit symbol.

Below, each entry is followed by its recorded solubility thermodynamic at 16 h result.
| compound | solubility thermodynamic at 16 h, µM |
| --- | --- |
| NC(=O)c1sc(N2CCOCC2)nc1CC(=O)N1CCc2c(Cl)cccc21 | 2 |
| CC1Cc2c(Cl)cccc2N1C(=O)Cc1nc(N2CCOCC2)sc1C(=O)O (stereo not drawn) | 4740 |

Consider the additional compound presented here.
**Q:** For the compound NC(=O)c1sc(N2CCOCC2)nc1CC(=O)N1CCc2c(Br)cccc21 , what solubility thermodynamic at 16 h is on record?
**A:** 2
